Listed next: entries and their corresponding normalised response.
Tested on: HCC1937
Method Notes: normalised response (% of control), CellTiter-Glo; higher = more viable cells (100 = DMSO, 0 = benzethonium chloride kill control)
Details: incubation time: 72 h
Numeric answer only, unit % assumed.

Answered cases to consult:
{"Compound": "Cn1cncc1[C@@](N)(c1ccc(Cl)cc1)c1ccc2c(c1)c(-c1cccc(Cl)c1)cc(=O)n2C [Tipifarnib] (10 nM)", "normalised response [%]": 82.3}
{"Compound": "CN(C)C[C@@H]1CCn2cc(c3ccccc32)C2=C(C(=O)NC2=O)c2cn(c3ccccc23)CCO1 [Ruboxistaurin] (10 nM)", "normalised response [%]": 99.5}
{"Compound": "Cn1c(=O)n(-c2ccc(C(C)(C)C#N)cc2)c2c3cc(-c4cnc5ccccc5c4)ccc3ncc21 [Dactolisib] (1 nM)", "normalised response [%]": 98.7}
{"Compound": "Cc1ccc(NC(=O)c2ccc(CN3CCN(C)CC3)cc2)cc1Nc1nccc(-c2cccnc2)n1 [Imatinib] (1000 nM)", "normalised response [%]": 93.6}
{"Compound": "CC(C)c1c(C(=O)Nc2ccccc2)c(-c2ccccc2)c(-c2ccc(F)cc2)n1CC[C@@H](O)C[C@@H](O)CC(=O)O [Atorvastatin] (1000 nM)", "normalised response [%]": 96.6}

[Q] Provide value of normalised response for this record tested with HCC1937: c1ccc([C@H]2CN3CCSC3=N2)cc1 [Levamisole] (10 nM)
[A] 103

[Q] What do you have for C[C@]12CC[C@H](O)CC1=CC[C@@H]1[C@@H]2CC[C@]2(C)C(c3cccnc3)=CC[C@@H]12 [Abiraterone] (500 nM) ?
[A] 98.7

The origin of these recorded values is the supplement of paper PMC4862054.
